- assayText: self-splicing fitness, log relative to wild type (ln ratio); higher = more splicing; Tetrahymena group I intron in knt gene, E. coli kanamycin selection, DiMSum; sequences stand for … in CUCUCU…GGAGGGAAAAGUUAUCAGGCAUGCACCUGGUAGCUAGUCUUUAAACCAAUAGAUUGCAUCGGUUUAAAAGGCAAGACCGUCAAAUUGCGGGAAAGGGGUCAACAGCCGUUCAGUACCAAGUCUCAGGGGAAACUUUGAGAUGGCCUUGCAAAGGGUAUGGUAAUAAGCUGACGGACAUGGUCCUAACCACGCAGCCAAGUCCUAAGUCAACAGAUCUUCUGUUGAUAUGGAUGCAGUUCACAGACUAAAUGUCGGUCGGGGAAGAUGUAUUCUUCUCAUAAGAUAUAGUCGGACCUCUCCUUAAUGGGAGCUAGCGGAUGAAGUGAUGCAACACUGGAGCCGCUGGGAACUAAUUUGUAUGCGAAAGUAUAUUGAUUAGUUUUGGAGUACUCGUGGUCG;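 further: selection with 25 µg/mL kanamycin versus none on LB agar overnight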
- conditionSummary: 30 °C
The reader will find reported self-splicing fitness (ln) values listed item by item below.

# count of solved cases: 3
[[record]]
residuestring = "AUAGAGCAAUAUUACGUUGG"
resultvalue = -4.04

[[record]]
residuestring = "AGCGAGCAAUAUUACGGUCA"
resultvalue = -2.05

[[record]]
residuestring = "ACUGAGCAAUAUUACGUUGG"
resultvalue = -4.04


Next, consider the following sequence.
Give its self-splicing fitness (ln) value. Item: "UACAAGCAAUAUUACGGCCU"
-1.09

----------
- assayText: self-splicing fitness, log relative to wild type (ln ratio); higher = more splicing; Tetrahymena group I intron in knt gene, E. coli kanamycin selection, DiMSum; sequences stand for … in CUCUCU…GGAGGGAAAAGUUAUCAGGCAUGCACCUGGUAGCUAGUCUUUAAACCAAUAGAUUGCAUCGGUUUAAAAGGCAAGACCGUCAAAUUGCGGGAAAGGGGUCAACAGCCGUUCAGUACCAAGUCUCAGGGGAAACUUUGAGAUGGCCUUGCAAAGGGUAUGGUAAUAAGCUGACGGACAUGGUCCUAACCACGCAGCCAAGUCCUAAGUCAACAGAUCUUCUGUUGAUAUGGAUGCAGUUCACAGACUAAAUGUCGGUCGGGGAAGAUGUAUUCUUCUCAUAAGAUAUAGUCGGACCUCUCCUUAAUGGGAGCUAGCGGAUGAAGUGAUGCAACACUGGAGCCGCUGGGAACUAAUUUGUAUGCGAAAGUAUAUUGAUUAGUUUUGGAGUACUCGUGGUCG
- conditionSummary: 37 °C
The reader will find reported self-splicing fitness (ln) values listed item by item below.
// return a plain number; no unit text

# count of solved cases: 3
[[record]]
residuestring = "UCUGAGCAAUAUUACGGCAA"
resultvalue = -1.8

[[record]]
residuestring = "CGUGAGCAAUAUUACGGAUA"
resultvalue = -2.71

[[record]]
residuestring = "ACACAGCAAUAUUACGCAUA"
resultvalue = -1.49


Give its self-splicing fitness (ln) value. Item: "AUUGAGCAAUAUUACGAGAA"
-2.62

Give its self-splicing fitness (ln) value. Item: "AAAAAGCAAUAUUACGCUGU"
-1.69

Give its self-splicing fitness (ln) value. Item: "CUGUAGCAAUAUUACGUUGA"
-2.43

----------
- assayText: self-splicing fitness, log relative to wild type (ln ratio); higher = more splicing; Tetrahymena group I intron in knt gene, E. coli kanamycin selection, DiMSum; sequences stand for … in CUCUCU…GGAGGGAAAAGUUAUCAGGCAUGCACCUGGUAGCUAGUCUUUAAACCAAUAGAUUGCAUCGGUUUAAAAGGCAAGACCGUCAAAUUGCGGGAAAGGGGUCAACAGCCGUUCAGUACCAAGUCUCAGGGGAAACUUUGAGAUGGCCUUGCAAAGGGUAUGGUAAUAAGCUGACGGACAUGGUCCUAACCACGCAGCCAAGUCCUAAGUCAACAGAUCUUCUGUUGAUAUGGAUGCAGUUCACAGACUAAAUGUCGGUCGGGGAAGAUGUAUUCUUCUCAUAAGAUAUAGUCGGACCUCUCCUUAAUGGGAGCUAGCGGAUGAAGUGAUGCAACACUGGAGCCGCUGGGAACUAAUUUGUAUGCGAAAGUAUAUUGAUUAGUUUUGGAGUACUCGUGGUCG
- conditionSummary: 37 °C
Label rule, in plain words: self-splicing fitness (ln) of -2 and up is 1, under -2 is 0.

[[record]]
residuestring = "ACGGAGCAAUAUUACGUCAG"
labelvalue = 1

[[record]]
residuestring = "AUAUAGCAAUAUUACGAGCC"
labelvalue = 0

[[record]]
residuestring = "ACACAGCAAUAUUACGUUUG"
labelvalue = 1


Check this sequence for self-splicing fitness (ln) at or above -2: "CGAAAGCAAUAUUACGGUGA"
1

Check this sequence for self-splicing fitness (ln) at or above -2: "CUAAAGCAAUAUUACGGACA"
0

Check this sequence for self-splicing fitness (ln) at or above -2: "UGGAAGCAAUAUUACGAGUU"
1

Check this sequence for self-splicing fitness (ln) at or above -2: "GCUAAGCAAUAUUACGGAUA"
1

Check this sequence for self-splicing fitness (ln) at or above -2: "UAUCAGCAAUAUUACGCGAA"
1

Check this sequence for self-splicing fitness (ln) at or above -2: "CGACAGCAAUAUUACGUCAU"
1

Check this sequence for self-splicing fitness (ln) at or above -2: "CCAAAGCAAUAUUACGUCGA"
0

Check this sequence for self-splicing fitness (ln) at or above -2: "UAUUAGCAAUAUUACGCCUC"
0

Check this sequence for self-splicing fitness (ln) at or above -2: "AAUUAGCAAUAUUACGUUGG"
0

Check this sequence for self-splicing fitness (ln) at or above -2: "AAUGAGCAAUAUUACGUUUU"
0

Check this sequence for self-splicing fitness (ln) at or above -2: "CGUCAGCAAUAUUACGUGCU"
0

Check this sequence for self-splicing fitness (ln) at or above -2: "GGCUAGCAAUAUUACGAGAU"
1

----------
The reader will find reported self-splicing fitness (ln) values listed item by item below.
- assayText: self-splicing fitness, log relative to wild type (ln ratio); higher = more splicing; Tetrahymena group I intron in knt gene, E. coli kanamycin selection, DiMSum; sequences stand for … in CUCUCU…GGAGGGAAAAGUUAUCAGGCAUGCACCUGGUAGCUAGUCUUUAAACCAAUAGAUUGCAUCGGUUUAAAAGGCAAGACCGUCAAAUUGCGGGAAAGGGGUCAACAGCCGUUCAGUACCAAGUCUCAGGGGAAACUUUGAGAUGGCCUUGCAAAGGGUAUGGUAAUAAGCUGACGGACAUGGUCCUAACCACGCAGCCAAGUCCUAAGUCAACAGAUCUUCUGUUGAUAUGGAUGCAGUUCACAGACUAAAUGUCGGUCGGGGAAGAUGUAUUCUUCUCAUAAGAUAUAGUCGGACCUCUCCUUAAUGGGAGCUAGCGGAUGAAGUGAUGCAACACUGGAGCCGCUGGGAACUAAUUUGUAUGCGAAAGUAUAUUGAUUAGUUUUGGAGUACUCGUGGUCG
- conditionSummary: 30 °C
// return a plain number; no unit text

# count of solved cases: 10
[[record]]
residuestring = "ACCAAGCAAUAUUACGAAAC"
resultvalue = -4.33

[[record]]
residuestring = "GACUAGCAAUAUUACGAUUC"
resultvalue = -0.598

[[record]]
residuestring = "GGAAAGCAAUAUUACGGUAA"
resultvalue = -1.62

[[record]]
residuestring = "GAAUAGCAAUAUUACGCUUG"
resultvalue = -0.781

[[record]]
residuestring = "AACCAGCAAUAUUACGGAAC"
resultvalue = -2.13

[[record]]
residuestring = "CAACAGCAAUAUUACGAUUU"
resultvalue = -0.837

[[record]]
residuestring = "GGGCAGCAAUAUUACGAGAA"
resultvalue = -3.05

[[record]]
residuestring = "CGAUAGCAAUAUUACGGAUC"
resultvalue = -3.1

[[record]]
residuestring = "AUUCAGCAAUAUUACGUCUG"
resultvalue = -2.09

[[record]]
residuestring = "ACAUAGCAAUAUUACGUGAC"
resultvalue = -3.15


Give its self-splicing fitness (ln) value. Item: "CCGAAGCAAUAUUACGCCAG"
-1.32

Give its self-splicing fitness (ln) value. Item: "CAUAAGCAAUAUUACGCGUU"
-3.3

Give its self-splicing fitness (ln) value. Item: "GAGUAGCAAUAUUACGUUGC"
-3.27

----------
- assayText: self-splicing fitness, log relative to wild type (ln ratio); higher = more splicing; Tetrahymena group I intron in knt gene, E. coli kanamycin selection, DiMSum; sequences stand for … in CUCUCU…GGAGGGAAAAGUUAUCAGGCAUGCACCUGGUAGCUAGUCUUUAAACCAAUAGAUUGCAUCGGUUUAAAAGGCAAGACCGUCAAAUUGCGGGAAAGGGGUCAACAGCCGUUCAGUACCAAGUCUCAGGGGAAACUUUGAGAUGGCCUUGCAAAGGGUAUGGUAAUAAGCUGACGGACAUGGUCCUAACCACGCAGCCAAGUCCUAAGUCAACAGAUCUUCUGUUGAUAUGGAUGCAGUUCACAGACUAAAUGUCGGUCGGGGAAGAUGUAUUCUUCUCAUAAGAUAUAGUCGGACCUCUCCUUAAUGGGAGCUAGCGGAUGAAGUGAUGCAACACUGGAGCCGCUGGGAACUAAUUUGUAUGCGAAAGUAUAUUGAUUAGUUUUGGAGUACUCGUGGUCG
- conditionSummary: 37 °C
readoutLabel: self-splicing fitness (ln)
// return a plain number; no unit text

[[record]]
residuestring = "UGACAGCAAUAUUACGCCAA"
resultvalue = -0.461


Give its self-splicing fitness (ln) value. Item: "GGCUAGCAAUAUUACGUAAG"
-0.594

Give its self-splicing fitness (ln) value. Item: "GUCUAGCAAUAUUACGCCCA"
-0.356

Give its self-splicing fitness (ln) value. Item: "GUCGAGCAAUAUUACGUAGU"
-1.47

Give its self-splicing fitness (ln) value. Item: "AUAAAGCAAUAUUACGGAUU"
0.0214

Give its self-splicing fitness (ln) value. Item: "GAAUAGCAAUAUUACGUGCU"
-0.626

Give its self-splicing fitness (ln) value. Item: "GCACAGCAAUAUUACGAGAG"
-1.33

Give its self-splicing fitness (ln) value. Item: "AUAUAGCAAUAUUACGUAAG"
-0.705

Give its self-splicing fitness (ln) value. Item: "UCAUAGCAAUAUUACGUAAU"
-2.61

Give its self-splicing fitness (ln) value. Item: "AAGUAGCAAUAUUACGUGUG"
-1.15

Give its self-splicing fitness (ln) value. Item: "CGCAAGCAAUAUUACGGUUA"
-0.121

Give its self-splicing fitness (ln) value. Item: "GGGCAGCAAUAUUACGGUAC"
-0.144

Give its self-splicing fitness (ln) value. Item: "UCAUAGCAAUAUUACGAAAG"
-1.84

Give its self-splicing fitness (ln) value. Item: "CCCUAGCAAUAUUACGCACA"
-1.97

Give its self-splicing fitness (ln) value. Item: "GUUCAGCAAUAUUACGAUGG"
-2.31

Give its self-splicing fitness (ln) value. Item: "ACAGAGCAAUAUUACGAGAC"
-2.67

Values compiled from the supplement of paper PMC7877785.
